Just for reference, patent US10023592B2 is where these values come from.

Molecular target: BRD4(BD1) (Homo sapiens (Human))
Experiment: In vitro enzyme inhibition assay (BRD4 AlphaScreen)
Assay type: binding
Conditions: class symbols A/B/C
pIC50: −log10 of the molar value.
Measured pIC50, listed per entry.
assay.metric: pIC50

>  <chemical.smiles>
Cn1cc(-c2cc(F)cc(NS(C)(=O)=O)c2)c2ccccc2c1=O

>  <assay.system>
BRD4(BD1) (Homo sapiens (Human))

>  <result.value>
5.30 to 6.30

$$$$
>  <chemical.smiles>
Cc1cc(=O)n(C)cc1-c1cc(NS(C)(=O)=O)ccc1Oc1ccc(F)cc1F

>  <assay.system>
BRD4(BD1) (Homo sapiens (Human))

>  <result.value>
> 6.30

$$$$
>  <chemical.smiles>
COc1ccc(-c2cn(C)c(=O)c3cnccc23)cc1S(=O)(=O)NCc1ccccc1

>  <assay.system>
BRD4(BD1) (Homo sapiens (Human))

>  <result.value>
< 5.30

$$$$
>  <chemical.smiles>
CCS(=O)(=O)Nc1ccc(Cl)c(-c2cn(C)c(=O)c3ccc(-c4cnn(C)c4)cc23)c1

>  <assay.system>
BRD4(BD1) (Homo sapiens (Human))

>  <result.value>
> 6.30

$$$$

###

Target: BRD4(BD1) (Homo sapiens (Human))
Assay: In vitro enzyme inhibition assay (BRD4 AlphaScreen)
Type: binding
Conditions: in vitro enzyme inhibition assay
pIC50: −log10 of the molar value.
assay.metric: pIC50

>  <compound>
Cc1cc(-c2nc(S(C)(=O)=O)ncc2Oc2ccc(F)cc2F)cn(C)c1=O [Example 149]

>  <assay.system>
BRD4(BD1) (Homo sapiens (Human))

>  <result.value>
5.30 to 6.30

$$$$
>  <compound>
Cn1cc(-c2nc(S(C)(=O)=O)ccc2OCC2CC2)c2cc(F)ccc2c1=O [Example 202]

>  <assay.system>
BRD4(BD1) (Homo sapiens (Human))

>  <result.value>
> 6.30

$$$$
>  <compound>
CCS(=O)(=O)Nc1cc(-c2ccc(=O)n(C)c2)c(-c2ccccc2)s1 [Example 424]

>  <assay.system>
BRD4(BD1) (Homo sapiens (Human))

>  <result.value>
< 5.30

$$$$
>  <compound>
Cc1cc(-c2nc(NS(C)(=O)=O)ncc2Oc2ccc(F)cc2F)cn(CC2CC2)c1=O [Example 248]

>  <assay.system>
BRD4(BD1) (Homo sapiens (Human))

>  <result.value>
> 6.30

$$$$
>  <compound>
Cn1cc(-c2cn(CS(C)(=O)=O)c(=O)cc2Oc2ccc(F)cc2F)c2ccccc2c1=O [Example 387]

>  <assay.system>
BRD4(BD1) (Homo sapiens (Human))

>  <result.value>
> 6.30

$$$$
>  <compound>
Cn1cc(-c2cc(S(C)(=O)=O)ccc2OCC2CCC2)ccc1=O [Example 460]

>  <assay.system>
BRD4(BD1) (Homo sapiens (Human))

>  <result.value>
> 6.30

$$$$
>  <compound>
CCc1ccc(S(C)(=O)=O)cc1-c1ccc(=O)n(C)c1 [Example 312]

>  <assay.system>
BRD4(BD1) (Homo sapiens (Human))

>  <result.value>
5.30 to 6.30

$$$$
>  <compound>
CCS(=O)(=O)Nc1ccc(Oc2ccc(F)cc2F)c(-c2cc(C)c(=O)n(CC3CC3)c2)c1 [Example 247]

>  <assay.system>
BRD4(BD1) (Homo sapiens (Human))

>  <result.value>
> 6.30

$$$$

###

Measured IC50, listed per entry.
Tested on: Raji, human Burkitts lymphoma cells
Test: Cell-MTS proliferation assay, Raji
Type: cell-based
Details: Homo sapiens, Raji; Cell-MTS, 168 hr; class symbols A/B/C

>  <chemical.smiles>
Cn1cc(-c2cc(S(C)(=O)=O)ccc2OCC2CC2)cc(N)c1=O

>  <IC50>
> 5000 nM

$$$$
>  <chemical.smiles>
CCS(=O)(=O)Nc1ccc(Oc2ccc(F)cc2F)c(-c2cc(F)c(=O)n(C)c2)c1

>  <IC50>
< 500 nM

$$$$
>  <chemical.smiles>
Cn1cc(-c2cccc(S(N)(=O)=O)c2)c2ccc(F)cc2c1=O

>  <IC50>
500 to 5000 nM

$$$$
>  <chemical.smiles>
COc1cc(F)c(CS(C)(=O)=O)cc1-c1cn(C)c(=O)c2ccc(-c3cnn(C)c3)cc12

>  <IC50>
< 500 nM

$$$$

###

Target: BRD4(BD1) (Homo sapiens (Human), UniProt O60885)
Assay: In vitro enzyme inhibition assay (BRD4 AlphaScreen)
Assay type: binding
Details: class symbols A/B/C
pIC50: −log10 of the molar value.
Measured pIC50, listed per entry.

>  <chemical.smiles>
CCNS(=O)(=O)c1cccc(-c2cn(C)c(=O)c3cc(F)ccc23)c1

>  <pIC50>
5.30 to 6.30

$$$$
>  <chemical.smiles>
COc1cccc(-c2cn(C)c(=O)c3ccccc23)c1

>  <pIC50>
5.30 to 6.30

$$$$
>  <chemical.smiles>
COc1ccc(-c2cc(N(C)C)c(=O)n(C)c2)cc1NS(C)(=O)=O

>  <pIC50>
> 6.30

$$$$
>  <chemical.smiles>
Cn1cc(-c2cc(NS(C)(=O)=O)ccc2F)c2ccccc2c1=O

>  <pIC50>
> 6.30

$$$$
>  <chemical.smiles>
CCS(=O)(=O)Nc1cccc(-c2cn(C)c(=O)c3ccncc23)c1

>  <pIC50>
5.30 to 6.30

$$$$

###

Measured pIC50, listed per entry.
Target: BRD4(BD1) (Homo sapiens (Human), UniProt O60885)
Test: In vitro enzyme inhibition assay (BRD4 AlphaScreen)
Assay type: binding
Settings: class symbols A/B/C
pIC50: −log10 of the molar value.
assay.metric: pIC50

>  <molecule>
CCS(=O)(=O)c1ccc(O)c(-c2cn(C)c(=O)c3ccc(-c4cnn(C)c4)cc23)c1 [Example 80]

>  <result.value>
> 6.30

$$$$
>  <molecule>
Cc1cnn(-c2ccc3c(=O)n(C)cc(-c4cc(S(C)(=O)=O)ccc4OCC4CC4)c3c2)c1 [Example 128]

>  <result.value>
> 6.30

$$$$
>  <molecule>
Cn1cc(-c2cccc(S(N)(=O)=O)c2)c2ccncc2c1=O [Example 55]

>  <result.value>
< 5.30

$$$$
>  <molecule>
CCS(=O)(=O)Nc1ccc(Oc2ccc(F)cc2F)c(-c2cn(C)c(=O)c3ccccc23)c1 [Example 93]

>  <result.value>
> 6.30

$$$$
>  <molecule>
Cc1cc(=O)n(C)cc1-c1cccc(NS(C)(=O)=O)c1 [Example 95]

>  <result.value>
5.30 to 6.30

$$$$
>  <molecule>
Cn1cc(-c2cccc(S(N)(=O)=O)c2)c2cc(F)ccc2c1=O [Example 48]

>  <result.value>
5.30 to 6.30

$$$$
>  <molecule>
CCS(=O)(=O)Nc1ccc(Oc2ccc(F)cc2F)c(-c2cc(N)c(=O)n(C)c2)c1 [Example 115]

>  <result.value>
> 6.30

$$$$
>  <molecule>
CCS(=O)(=O)Nc1cccc(-c2cn(C)c(=O)c3ccc(-c4ccccn4)cc23)c1 [Example 87]

>  <result.value>
5.30 to 6.30

$$$$

###

Measured pIC50, listed per entry.
Test system: Raji, human Burkitts lymphoma cells
Assay: Cell-MTS proliferation assay, Raji
Format: cell-based
Details: Homo sapiens, Raji; Cell-MTS, 168 hr; class symbols A/B/C
pIC50: −log10 of the molar value.
assay.metric: pIC50

>  <chemical.smiles>
CCS(=O)(=O)Nc1ccc(Cl)c(-c2cn(C)c(=O)c3ccc(-c4cnn(C)c4)cc23)c1

>  <result.value>
> 6.30

$$$$
>  <chemical.smiles>
Cn1cc(-c2cc(S(C)(=O)=O)ccc2OCC2CC2)n2cncc2c1=O

>  <result.value>
5.30 to 6.30

$$$$
>  <chemical.smiles>
CCS(=O)(=O)c1ccc(OCC2CC2)c(-c2cn(C)c(=O)c3ccc(-c4cnn(C)c4)cc23)c1

>  <result.value>
> 6.30

$$$$
>  <chemical.smiles>
CCS(=O)(=O)Nc1ccc(Cl)c(-c2cn(C)c(=O)c3ccc(F)cc23)c1

>  <result.value>
5.30 to 6.30

$$$$

###

Tested on: Raji, human Burkitts lymphoma cells
Experiment: Cell-MTS proliferation assay, Raji
Type: cell-based
Conditions: Homo sapiens, Raji; Cell-MTS, 168 hr; class symbols A/B/C
Measured IC50, listed per entry.
assay.metric: IC50

>  <compound>
CCS(=O)(=O)Nc1ccc(Oc2ccc(F)cc2F)c(-c2ccc(=O)n(C)c2)c1 [Example 99]

>  <assay.system>
Raji, human Burkitts lymphoma cells

>  <assay.metric>
IC50

>  <result.value>
< 500 nM

$$$$
>  <compound>
Cn1cc(-c2cc(NS(C)(=O)=O)ccc2Cl)c2ccccc2c1=O [Example 38]

>  <assay.system>
Raji, human Burkitts lymphoma cells

>  <assay.metric>
IC50

>  <result.value>
500 to 5000 nM

$$$$
>  <compound>
Cc1ccc(-c2cn(C)c(=O)c3ccccc23)cc1NS(C)(=O)=O [Example 17]

>  <assay.system>
Raji, human Burkitts lymphoma cells

>  <assay.metric>
IC50

>  <result.value>
500 to 5000 nM

$$$$
>  <compound>
Cn1cc(-c2cccc(NS(C)(=O)=O)c2)c2ccc(F)cc2c1=O [Example 58]

>  <assay.system>
Raji, human Burkitts lymphoma cells

>  <assay.metric>
IC50

>  <result.value>
500 to 5000 nM

$$$$
>  <compound>
Cn1cc(-c2cccc(S(=O)(=O)N3CCCC3)c2)c2ccccc2c1=O [Example 7]

>  <assay.system>
Raji, human Burkitts lymphoma cells

>  <assay.metric>
IC50

>  <result.value>
< 500 nM

$$$$
